Values from PubChem BioAssay (NCI)

# Test system: LOX IMVI melanoma
# protocol.details: NCI-60 one-dose screen, 48 h (100 = growth as untreated, 0 = no growth, -100 = all killed)
# test.context: 10 µM unless noted
The panel holds about 83,000 compounds, 20% with a hit somewhere; the sample as a whole holds those more often.
# if value of growth reaches 20%, tag true; if it stays below, tag false

INPUT: Decide: is the reported value of growth for `Clc1ccc(COc2ccc(Nc3ncnc4onc(-c5ccccc5)c34)cc2)cc1` equal to or greater than 20%?
OUTPUT: true

INPUT: Let us now turn to `CCCCNc1nc(NC(C)(C)C)nc(NC(C)(C)C)n1`
OUTPUT: true

INPUT: Let us now turn to O=C(c1nc2ccccc2[nH]1)C1[C@@H](c2cccc(O)c2)C2CC3CCCCC3N2[C@@]12C(=O)Nc1cc(Cl)ccc12 (stereo partly drawn)
OUTPUT: true

INPUT: Let us now turn to `CCC1=C[C@@H]2CN(C1)Cc1c([nH]c3ccccc13)[C@@](C(=O)OC)(c1cc3c(cc1OC)N(C)[C@H]1[C@@](O)(C(=O)OC)[C@H](OC(C)=O)[C@]4(CC)[C@@H]5C[C@@H]5CN5CC[C@]31[C@@H]54)C2`
OUTPUT: false

INPUT: Let us now turn to `O=c1oc2ccc(Cl)cc2c(=O)n1-c1ccc(Cl)cc1F`
OUTPUT: false

INPUT: Let us now turn to CN1C(=O)N(C)C2(c3ccccc3)OC(=S)NC12c1ccccc1 (stereo not drawn)
OUTPUT: true

INPUT: Let us now turn to COc1cccc(C2=NN3C(C2)c2ccccc2OC3c2ccc(/C=C3\SC(=O)NC3=O)cc2)c1 (stereo not drawn)
OUTPUT: true

INPUT: Let us now turn to `CC(=O)c1ccc(Nc2nc(NCCO)nc(Nc3ccc(Cl)cc3)n2)cc1`
OUTPUT: true

----------
# Test system: T-47D breast
# protocol.details: NCI-60 one-dose screen, 48 h (100 = growth as untreated, 0 = no growth, -100 = all killed)
# test.context: 10 µM unless noted
Compounds without any hit were thinned out: in the full panel of roughly 83,000, 20% have a hit.
Classes by growth: lo = under 30%, med = from 30% up to 60%, hi = 60% and over

INPUT: Hey, which category is `CCN(CC)CCNC(=O)C(Cl)=C1C(Cl)=C(Cl)C(Cl)=C1Cl` in, do you know?
OUTPUT: med

INPUT: Let us now turn to COc1ccc(C2C3=C(COC3=O)N(CCO)c3cc4c(cc32)CCC4)cc1 (stereo not given)
OUTPUT: med

INPUT: Let us now turn to COc1cc(C2C(C#N)=C(N)OC3=C2C(=O)c2ccccc2C3=O)cc(OC)c1OC (stereo not given)
OUTPUT: hi

INPUT: Let us now turn to `COc1cccc(/C(C#N)=C/c2nc3c(N4CCOCC4)nc(Cl)nc3n2C)c1`
OUTPUT: lo

INPUT: Let us now turn to CCN1C(=O)N(CC)C2Nn3c(s/c(=C\c4ccccc4F)c3=O)=NC21 (stereo not given)
OUTPUT: hi

INPUT: Let us now turn to `CN(C)c1ccc(/C=C/c2ccnc3c(O)cccc23)cc1`
OUTPUT: lo

INPUT: Let us now turn to `CN(C)CCNc1cc(-c2ccccc2)nc2ccccc12`
OUTPUT: lo

INPUT: Let us now turn to Clc1ccc(-c2nnc(COc3ccc(C4=NNC(c5ccco5)C4)cc3)o2)cc1 (stereo not given)
OUTPUT: lo

INPUT: Let us now turn to `N#C/C(=C\c1c(-c2ccccc2)[nH]c2ccccc12)C(=O)c1ccccc1`
OUTPUT: med

INPUT: Let us now turn to `COc1cc(/C=C2\CCC/C(=C\c3cc(CN4CCOCC4)c(O)c(OC)c3)C2=O)cc(CN2CCOCC2)c1O`
OUTPUT: hi
